# Test system: TK-10 renal
# method: NCI tumour cell line growth inhibition, 48 h
property label: TGI

Some entries whose results are on file:
FC(F)(F)c1nc2cc(SSc3cc4nc(C(F)(F)F)[nH]c4cc3Cl)c(Cl)cc2[nH]1 : > 100 µM
CC(Nc1cc(=O)n(C)c(=O)[nH]1)c1ccccc1 (stereo unspecified) : > 100 µM
O=C(NN1C(=O)C(Cl)C1c1ccc([N+](=O)[O-])cc1)c1ccccc1O (stereo unspecified) : > 100 µM
NC(=O)C12CCC1C1CCCCC12N1CCOCC1 (stereo unspecified) : > 100 µM
O=C(O)CCc1nc(-c2ccccc2)c(-c2ccccc2)o1 : > 100 µM
COc1cc(C(=C2SCCS2)c2nccc3cc(OC)c(OC)cc23)c([N+](=O)[O-])cc1OC : > 100 µM

Request: Entry CCOC(=O)C1CCn2c(nc3c(=O)n(C)c(=O)n(C)c32)S1 (stereo unspecified) has what TGI?
Response: > 100 µM

----------
# Tested on: A498 renal
# method: NCI tumour cell line growth inhibition, 48 h
property label: TGI (µM)
Reply numerically in µM, unit not repeated.

COc1cc(OC)c(NC2=NCCO2)cc1Cl : 81.5

Request: Entry Cc1ccc(C(=O)/C=C/N2CCN(c3cccc(C(F)(F)F)c3)CC2)cc1 has what TGI?
Response: 33.3

Request: Please give the result for CCCCCCCCCCCCCCCCCCOCC1(COP(=O)([O-])OCC[N+](C)(C)C)CCCO1 (configuration not stated) too.
Response: 11.8

Request: Please give the result for CC(C(O)c1ccccc1)[N+](=O)[O-] (configuration not stated) too.
Response: 36.3

Request: Please give the result for ClC1=C(Cl)C(Cl)=C(Cl)C1=Cc1ccc(Cl)cc1Cl too.
Response: 2.6

Request: Please give the result for CCCCCCCCCCC(CN(CC)CC)C(O)c1ccccc1 (configuration not stated) too.
Response: 14.4

Request: Please give the result for O=c1cc(-c2ccc[nH]2)[nH]c2cc3c(cc12)OCO3 too.
Response: 74.3

Request: Please give the result for NC(N)=N/N=C(/c1ccccc1)c1ccc(O)cc1O too.
Response: 61.7

Request: Please give the result for CCC(C)N1CN(c2ccccc2)C2(CCN(CCCC(=O)c3ccc(F)cc3)CC2)C1=O (configuration not stated) too.
Response: 16.8

----------
# Test system: RPMI-8226 leukemia
# method: NCI tumour cell line growth inhibition, 48 h
Below is a list of entries, each paired with its recorded TGI value.
Reply numerically in µM, unit not repeated.

CCCCCCCCCCCCCCCCCCOCC1(COP(=O)([O-])OCC[N+](C)(C)C)CCCO1 (centres undefined) : 8.55

Request: Recorded TGI for O=C1c2c(O)cccc2C(C(=O)CCCC(=O)C2c3cccc(O)c3C(=O)c3c(O)cccc32)c2cccc(O)c21 with RPMI-8226 leukemia, please?
Response: 0.752

Request: Please give the result for O=C1CSC(c2c(O)ccc3ccccc23)N1n1c(=S)[nH]nc(/C=C/c2c(O)ccc3ccccc23)c1=O (centres undefined) too.
Response: 17.4

Request: Please give the result for O=S(=O)(Nc1nc(-c2cc(O)c(O)c(O)c2)cs1)c1ccc(Cl)cc1Cl too.
Response: 40.8

Request: Please give the result for Cc1ccc2oc(=O)cc(C3c4ccc([nH]4)C(c4cc(=O)oc5ccc(C)cc45)c4ccc([nH]4)C(c4cc(=O)oc5ccc(C)cc45)c4ccc([nH]4)C(c4cc(=O)oc5ccc(C)cc45)c4ccc3[nH]4)c2c1 (centres undefined) too.
Response: 0.578

Request: Please give the result for CCC[CH2][Sn]1([CH2]CCC)[O]CC([CH2][Sn]([c]2ccccc2)([c]2ccccc2)[c]2ccccc2)[O]1 (centres undefined) too.
Response: 18.7

Request: Please give the result for CCCCCC/C=C\CCCCCCCCCc1c(O)c(OC)cc(O)c1CN(C)C too.
Response: 7.62

Request: Please give the result for CN(C)Cc1cc(C(=O)/C=C/c2c(F)cccc2Cl)cc(CN(C)C)c1O too.
Response: 49.6

Request: Please give the result for CC1=NN(c2cccc(Cl)c2)C2(C1)SCC(=O)N2c1nc2ccccc2s1 (centres undefined) too.
Response: 38.6

Request: Please give the result for O=C1O[C@H](COC(=O)c2ccccc2)[C@@H](OC(=O)c2ccccc2)C=C1OC(=O)c1ccccc1 too.
Response: 71.8

----------
# Tested on: EKVX NSCLC
# method: NCI tumour cell line growth inhibition, 48 h
property label: TGI (µM)
Reply numerically in µM, unit not repeated.

CC(C)c1ccc(O)c(O)c(=O)c1 (tested in a mixture with another compound) : 47.7

Field: next compound
Request: Entry COc1ccc(Cn2c3c(c4c(O)cccc42)C(=O)c2ccccc2-3)cc1 has what TGI?
Response: 27.7

----------
Please consider the recorded GI50 for MDA-MB-435 in what follows.

Some entries whose results are on file:
Cc1cc(S(=O)(=O)Nc2nc3ccsc3c(=O)n2Cc2ccccc2)c(S)cc1Cl : 29300 nM
CC1(C)CC(O)CCCCCCOc2c(CN)cccc2NC(=O)c2nc(cnc2N)-c2ccc(cc2)S1(=O)=O (stereo not given) : 558 nM
O=C(/C=C\c1ccc(OCCCCCC[P+](c2ccccc2)(c2ccccc2)c2ccccc2)cc1)c1ccc2c(c1)OCCO2 : 985 nM

Field: next compound
Request: Entry C=C(CN(CCN1CCOCC1)CC(=C)c1ccc(C(=O)Nc2ccccc2N)cc1)c1ccc(C(=O)Nc2ccccc2N)cc1 has what GI50?
Response: 8670 nM

----------
# System: NCI-H460 lung
# method: NCI tumour cell line growth inhibition, 48 h
property label: TGI

Some entries whose results are on file:
N=C(N)Cn1cnc2ccccc21 : > 100 µM
CC(=N\N=C\c1ccccn1)/C(C)=N/N=C/c1ccccn1 : > 100 µM
CC(=O)O[C@@H]1CC2[C@@H](CCC3Cc4nc5c(nc4C[C@@]32C)CC2CC[C@@H]3C(CC[C@@]4(C)C3CC[C@@H]4C(C)CCCC(C)C)[C@@]2(C)C5)C2C[C@@H]3OC4(CCC(C)CO4)C(C)[C@@H]3[C@]21C (stereo partly specified) : > 100 µM
CCC(C)c1cnc(CC(C)C)c(=O)[nH]1 (stereo unspecified) : > 100 µM
CCC(c1nc2ccccc2c(=O)n1NC(=O)C(C)(C)C)C1(O)CCCCC1 (stereo unspecified) : > 100 µM

Field: next molecule
Request: Entry COC(=O)C1(Cc2ccc3c(c2)CCC3)Cc2cc3c(cc2C1=O)CCC3 (stereo unspecified) has what TGI?
Response: > 46.4 µM

----------
# System: MOLT-4 leukemia
# method: NCI tumour cell line growth inhibition, 48 h
property label: TGI

Request: Entry O=C(O)C1Cc2ccccc2OC1=O (centres undefined) has what TGI?
Response: > 100 µM

Request: Please give the result for CC(=O)[CH-]C(=O)c1ccccc1.CC(=O)[CH-]C(=O)c1ccccc1.CC[O-].O=C1C=C([O-])C(=O)c2ccccc21.[Ti+4] too.
Response: > 100 µM

Request: Please give the result for O=C(O)c1ccc(/C=N\N(CCO)C2=NCCN2)cc1 too.
Response: > 100 µM

Request: Please give the result for O=C(OCc1c(-c2ccccc2)nn(-c2ccccc2)c1COC(=O)Oc1ccccc1)Oc1ccccc1 too.
Response: > 100 µM

Request: Please give the result for CC(=O)NNc1nc(C)c(C(/C=C/c2ccc(Cl)cc2)=N/NC(=S)NN)s1 too.
Response: > 100 µM

Request: Please give the result for COc1ccc(-c2c(C(C)=O)c(-c3ccccc3)n(C3OC(COC(C)=O)C(OC(C)=O)C(OC(C)=O)C3OC(C)=O)c(=S)c2C#N)cc1O (centres undefined) too.
Response: > 100 µM

Request: Please give the result for CCOC(=O)C1CCn2c(nc3c(=O)n(C)c(=O)n(C)c32)S1 (centres undefined) too.
Response: > 100 µM

Request: Please give the result for CNC(=O)C(NC(=O)[C@H](CC(C)C)NC(=O)[C@@H](S)CCN1C(=O)N(C)C(C)(C)C1=O)C(C)(C)C (some centres undefined) too.
Response: > 100 µM

Request: Please give the result for NC(=O)C12CCC1C1CCCCC12N1CCOCC1 (centres undefined) too.
Response: > 100 µM

----------
# Tested on: OVCAR-4 ovarian
# method: NCI tumour cell line growth inhibition, 48 h
property label: TGI

Cc1cc(S(=O)(=O)Nc2nc3ccsc3c(=O)n2Cc2ccccc2)c(S)cc1Cl : > 100 µM
COc1cccc2cc(N(C)c3nc(C)nc4ccsc34)ccc12 : 19.8 µM
C[n+]1ccc2[nH]c3ccccc3c2c1 : > 100 µM

Request: Entry O=C(OCc1c(-c2ccccc2)nn(-c2ccccc2)c1COC(=O)Oc1ccccc1)Oc1ccccc1 has what TGI?
Response: > 100 µM

Request: Please give the result for Cc1sc2c(c1C)C(c1ccc(Cl)cc1)=N[C@@H](CC(=O)Nc1ccc(O)cc1)c1nnc(C)n1-2 too.
Response: > 67 µM

Request: Please give the result for COC(=O)c1cccc2c1Oc1ccccc1S2 too.
Response: > 100 µM

Request: Please give the result for CO[C@H]1/C=C/C[C@H](C)[C@@H](C)S(=O)(=O)NC(=O)c2ccc3c(c2)N(C[C@@H]2CC[C@H]21)C[C@@]1(CCCc2cc(Cl)ccc21)CO3 too.
Response: 12.1 µM
